- TEST DETAILS: NCI Yeast Anticancer Drug Screen. Data for the cln2 rad14 strain (AID 165);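 further: 0% = growth equal to vehicle treated cultures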
- MEASUREMENT CONTEXT: S. cerevisiae cln2 rad14 strain, at 50.0 µM (retest, dose inferred, filed as 5.0), active compounds read high
- Description: Growth inhibition of yeast strains with defined genetic alterations is measured as a screen for potential anti-cancer activity. Selected strains with alterations in DNA damage repair or cell cycle control were exposed to compounds and growth inhibition was measured relative to vehicle treated controls. The strain used in this assay is cln2 rad14
This is part of a sample that, as a whole, favours compounds with a hit. Of some 79,000 tested, about 15% had one in any assay.
Think of 70% as a floor: if growth inhibition stands on it or above, it is True; beneath it, False.

>>> category_label("CSCCC([NH-])C(=O)O.CSCCC([NH-])C(=O)O.[Zn+2] (stereo unspecified)")
"False"
>>> category_label("CCOc1ccc(CCNC)c2c1ccc1ccc(OC)c(O)c12")
"True"
>>> category_label("C[CH2][Sn]([Cl])([CH2]C)[CH2]C")
"False"
>>> category_label("CC(=O)[CH-]C(C)=O.CC(=O)[CH-]C(C)=O.N=CC=N.[Sn+2]")
"True"
>>> category_label("CC1(OO)CCC2CC1C2(C)C (stereo unspecified)")
"False"
>>> category_label("Nc1ccc([As]=[As]c2ccc(N)cc2)cc1 (stereo unspecified)")
"False"

---

- TEST DETAILS: NCI Yeast Anticancer Drug Screen. Data for the bub3 strain (AID 167)
- MEASUREMENT CONTEXT: S. cerevisiae bub3 mutant strain, at 50.0 µM, active compounds read high
About 79,000 compounds went through this panel and 15% of them were active in at least one assay; those are over-represented in the sample as a whole. Calls of active or inactive are those of the source. No stated cut-off is given here; in the data, active means growth inhibition above about 70%; inactive means the rest.
OBSERVATION TYPE: growth inhibition

>>> reported_value("COc1cc(C(CC(C)=O)c2cc3c(cc2OC(C)=O)OCO3)cc(OC)c1OC (stereo not given) (tested in a mixture with another compound)")
"5.15% (inactive)"
>>> reported_value("Cc1nccn1-c1ccc(Cl)cc1N=Cc1ccc(N(CCCl)CCCl)cc1Cl")
"43% (inactive)"
>>> reported_value("C[n+]1c(/C=C/c2ccc(O)c3ccccc23)[se]c2ccccc21")
"74.6% (active)"
>>> reported_value("CCCN(CCC)c1c([N+](=O)[O-])cc(C(=O)N(CC)CC)cc1[N+](=O)[O-]")
"34.1% (inactive)"
>>> reported_value("NC(Cc1cccc(F)c1)c1nn[nH]n1 (stereo not given)")
"1.65% (inactive)"
>>> reported_value("O=[N+]([O-])O.[NH-]C1CCCCC1[NH-].[NH-]C1CCCCC1[NH-].[OH-].[OH-].[Pt+4].[Pt+4] (stereo not given)")
"-41% (inactive)"
>>> reported_value("CC(C)(C)S.[Hg]")
"99.5% (active)"
>>> reported_value("CCOC(=O)C1(O)N=C(c2ccccc2)c2ccccc2-n2cccc21 (stereo not given)")
"10.2% (inactive)"
>>> reported_value("CCCCCCC[CH2][Sn][CH2]CCCCCCC.Nc1ncnc2c1ncn2C1OC(CO)C2[OH+][OH+]C21 (stereo not given)")
"2.3% (inactive)"
>>> reported_value("O=P(c1cccc(C(F)(F)F)c1)(c1cccc(C(F)(F)F)c1)c1cccc(C(F)(F)F)c1.O=P(c1cccc(C(F)(F)F)c1)(c1cccc(C(F)(F)F)c1)c1cccc(C(F)(F)F)c1.[Cl][Sn]([Cl])([Cl])[Cl]")
"48.8% (inactive)"

The reported numbers originate from PubChem BioAssay (NCI).
